Target: Tyrosyl-DNA phosphodiesterase 1 (Homo sapiens)
Experiment: qHTS Assay for Inhibitors of Tyrosyl-DNA Phosphodiesterase (TDP1); note: nearly all actives have a fitted effect of over 40% in size
Details: recombinant TDP1, AlphaScreen DNA substrate cleavage; series mostly up to 130 µM
The whole screen tested about 350,000 compounds, of which about 990 (0.28%) were called active. Not shown: some 2% with an inconclusive outcome. Calls come from the whole dose curve; as a rule, active = well fitted inhibition curve with a large enough effect; inconclusive = small, poorly fitted or top-dose-only effect; inactive = no such curve, though single readings can be large or run the other way. Only a selection was taken, and actives are over-represented in it overall.
Outcomes: yes (1) (active), no (0) (inactive)

# COMPOUND, ANSWER LABEL
data = [
    ("COc1cc(F)c(S(=O)(=O)N2CCCN(S(=O)(=O)c3ccc(N)cc3)CC2)c(F)c1", "no (0)"),
    ("Cc1ccc(-n2ncc3c(NCCCn4ccnc4)ncnc32)cc1Cl", "no (0)"),
    ("CN(C)c1ccc(C(CNS(=O)(=O)c2cc(F)ccc2F)N2CCOCC2)cc1 (stereo not given)", "no (0)"),
    ("COc1ccc(C2Nc3ccccc3C(=O)N2Cc2ccc(CNC(=O)CO)cc2)cc1COc1ccc(NC(C)=O)cc1 (stereo not given)", "no (0)"),
    ("Cc1ccnc2nc(C(=O)OCC(=O)N(CC(C)C)CC(C)C)nn12", "no (0)"),
    ("C=CCNC(=O)c1ccc2nc(-c3ccco3)c(-c3ccco3)nc2c1", "no (0)"),
    ("CN(C)Cc1cn(-c2ccccc2)nc1-c1ccccc1", "no (0)"),
    ("O=C(NCc1ccccn1)c1ccc2nc(-c3ccco3)c(-c3ccco3)nc2c1", "yes (1)"),
    ("COC(=O)c1ccc(NC(=O)CCc2c(C)nn(-c3ccc(N4CCCC4)nn3)c2C)cc1", "no (0)"),
    ("COc1ccc(C(=O)Nc2ccc(-n3nncc3-c3ccccc3)cc2)cc1OC", "no (0)"),
]

---

Target: Tyrosyl-DNA phosphodiesterase 1 (Homo sapiens)
Assay: qHTS Assay for Inhibitors of Tyrosyl-DNA Phosphodiesterase (TDP1); note: nearly all actives have a fitted effect of over 40% in size
Conditions: recombinant TDP1, AlphaScreen DNA substrate cleavage; series mostly up to 130 µM
Out of some 350,000 compounds screened, about 990 (0.28%) were called active. Inconclusive results (about 2%) are left out. The call rests on the fitted dose curve; in most records, active means well fitted inhibition curve with a large enough effect; inconclusive means small, poorly fitted or top-dose-only effect; inactive means no such curve, though single readings can be large or run the other way. The entries come from a sample that favours actives as a whole.
Outcomes: active, inactive

# COMPOUND, SUBJECT OF TEST, ANSWER LABEL
data = [
    ("CCOC(=O)C1=C(C)N=C2c3ccccc3C(=O)C2C1c1ccc(Br)cc1 (stereo not given)", "Tyrosyl-DNA phosphodiesterase 1 (Homo sapiens)", "inactive"),
    ("OC[C@@H]1O[C@H](n2cnc3c(SCc4ccccc4)ncnc32)[C@H](O)[C@H]1O", "Tyrosyl-DNA phosphodiesterase 1 (Homo sapiens)", "inactive"),
    ("CCOC(=O)C1=NOC(Cn2cc(C(C)=O)c(=O)[nH]c2=O)C1 (stereo not given)", "Tyrosyl-DNA phosphodiesterase 1 (Homo sapiens)", "inactive"),
    ("COc1ccc(C2Nc3ccc(NC(=O)COC(C)=O)cc3C(=O)N2Cc2ccccc2)cc1COc1ccc(NC(C)=O)cc1 (stereo not given)", "Tyrosyl-DNA phosphodiesterase 1 (Homo sapiens)", "inactive"),
    ("CCOC(=O)C1=NO[C@@]2(C=C(Br)C(=O)[C@H]3O[C@H]32)C1", "Tyrosyl-DNA phosphodiesterase 1 (Homo sapiens)", "active"),
]

---

Molecular target: Tyrosyl-DNA phosphodiesterase 1 (Homo sapiens) (UniProt Q9NUW8)
Sequence (Q9NUW8 whole entry, looked up): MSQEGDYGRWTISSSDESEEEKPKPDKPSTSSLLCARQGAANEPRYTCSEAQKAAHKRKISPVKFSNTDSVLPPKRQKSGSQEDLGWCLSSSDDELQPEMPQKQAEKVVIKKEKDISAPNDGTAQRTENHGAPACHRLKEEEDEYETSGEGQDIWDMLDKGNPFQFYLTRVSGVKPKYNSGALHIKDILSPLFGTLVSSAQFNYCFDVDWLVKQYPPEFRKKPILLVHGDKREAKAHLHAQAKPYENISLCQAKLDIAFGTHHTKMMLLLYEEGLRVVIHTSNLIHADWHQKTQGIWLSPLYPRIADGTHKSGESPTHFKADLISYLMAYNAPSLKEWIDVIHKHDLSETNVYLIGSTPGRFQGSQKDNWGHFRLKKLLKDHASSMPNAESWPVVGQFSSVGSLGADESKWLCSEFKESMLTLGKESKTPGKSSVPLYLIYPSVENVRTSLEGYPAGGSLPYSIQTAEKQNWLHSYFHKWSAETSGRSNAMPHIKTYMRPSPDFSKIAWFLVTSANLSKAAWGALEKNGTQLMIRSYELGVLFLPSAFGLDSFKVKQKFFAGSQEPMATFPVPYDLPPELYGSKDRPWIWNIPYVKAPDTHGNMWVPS
Test: qHTS Assay for Inhibitors of Tyrosyl-DNA Phosphodiesterase (TDP1); note: nearly all actives have a fitted effect of over 40% in size
Conditions: recombinant TDP1, AlphaScreen DNA substrate cleavage; series mostly up to 130 µM
Hit rate of the full screen: of about 350,000 compounds, about 990 (0.28%) were called active. Not shown: some 2% with an inconclusive outcome. Calls come from the whole dose curve; as a rule, active = well fitted inhibition curve with a large enough effect; inconclusive = small, poorly fitted or top-dose-only effect; inactive = no such curve, though single readings can be large or run the other way. Only a selection was taken, and actives are over-represented in it overall.
Outcomes: yes for active, no for inactive

# COMPOUND, ANSWER LABEL
rows = [
    ("COc1ccc(-c2nc3sc(CCNC(=O)C(C)(C)C)c(C)n3n2)cc1", "no"),
    ("Cc1nn(C)cc1N1C(=O)c2cccc3c(N)ccc(c23)C1=O", "no"),
    ("CN(C)C(CNC(=O)c1ccc(OCc2cn3ccccc3n2)cc1)c1ccco1 (stereo not given)", "yes"),
    ("CCOCN(C(=O)Cn1c(C(C)O)nc2ccccc21)c1c(C)cccc1CC (stereo not given)", "yes"),
    ("Cc1ccc(C2C=C(c3ccc(Cl)cc3)Nc3nc(NC(=O)CCC(=O)O)nn32)cc1 (stereo not given)", "no"),
    ("CC(=O)Nc1cccc(NC(=O)CSc2nccn2Cc2ccc3c(c2)OCO3)c1", "no"),
    ("COc1cccc(NC(=O)C(=O)NCC(c2ccc3c(c2)OCO3)N2CCN(C)CC2)c1 (stereo not given)", "no"),
    ("CCCCNC(=O)Cn1c(SCc2cccc(Cl)c2)nc2ccncc21", "no"),
    ("CCc1cccc(C)c1N(C(=O)Cn1c(CO)nc2ccccc21)C(C)COC (stereo not given)", "no"),
    ("CCOC(=O)C1=C(C)c2ccccc2OC1C(=O)OCC (stereo not given)", "no"),
]

---

Molecular target: Tyrosyl-DNA phosphodiesterase 1 (Homo sapiens)
Assay: qHTS Assay for Inhibitors of Tyrosyl-DNA Phosphodiesterase (TDP1); note: nearly all actives have a fitted effect of over 40% in size
Settings: recombinant TDP1, AlphaScreen DNA substrate cleavage; series mostly up to 130 µM
Hit rate of the full screen: of about 350,000 compounds, about 990 (0.28%) were called active. About 2% were inconclusive and are not listed. The call rests on the fitted dose curve; in most records, active means well fitted inhibition curve with a large enough effect; inconclusive means small, poorly fitted or top-dose-only effect; inactive means no such curve, though single readings can be large or run the other way. The sample as a whole holds a higher share of actives than the screen did.
Outcomes: active, inactive

# COMPOUND, SUBJECT OF TEST, ANSWER LABEL
records = [
    ("O=c1[nH]c(=S)[nH]c2[nH]c(=S)[nH]c12", "Tyrosyl-DNA phosphodiesterase 1 (Homo sapiens)", "active"),
    ("O=C(COC(=O)C12CC3CC(CC(C3)C1)C2)NCc1ccco1", "Tyrosyl-DNA phosphodiesterase 1 (Homo sapiens)", "inactive"),
    ("COc1ccc(C2Nc3ccccc3C(=O)N2Cc2ccc(Cl)cc2)cc1COc1ccc(NC(C)=O)cc1 (stereo not drawn)", "Tyrosyl-DNA phosphodiesterase 1 (Homo sapiens)", "inactive"),
    ("COc1ccc(-c2c3c(=O)n(C)c(=O)n(C)c3c3c(C)nc4ccccc4n23)cc1", "Tyrosyl-DNA phosphodiesterase 1 (Homo sapiens)", "inactive"),
    ("Cc1cc(NC(=O)CSc2nc(=O)cc(N)n2-c2ccc(F)cc2)no1", "Tyrosyl-DNA phosphodiesterase 1 (Homo sapiens)", "active"),
    ("CCN(CC)c1nc(C#N)nc(OC)n1", "Tyrosyl-DNA phosphodiesterase 1 (Homo sapiens)", "inactive"),
    ("CCCNC(=O)CN(Cc1ccccc1F)S(=O)(=O)c1ccc(C)cc1", "Tyrosyl-DNA phosphodiesterase 1 (Homo sapiens)", "inactive"),
    ("O=C(Nc1ccc(F)cc1F)c1ccc2c(=O)n3c(nc2c1)CCCCC3", "Tyrosyl-DNA phosphodiesterase 1 (Homo sapiens)", "inactive"),
    ("Cc1ccc(Cc2cnc(N)s2)o1", "Tyrosyl-DNA phosphodiesterase 1 (Homo sapiens)", "active"),
    ("Cn1c(COc2ccccc2C(C)(C)C)nc2ccccc21", "Tyrosyl-DNA phosphodiesterase 1 (Homo sapiens)", "inactive"),
    ("CC(C)NC(=O)C(=O)N/N=C/c1ccco1", "Tyrosyl-DNA phosphodiesterase 1 (Homo sapiens)", "inactive"),
    ("Cc1ccc(CCC(=O)Nc2ncc(Cc3cc(Cl)ccc3Cl)s2)o1", "Tyrosyl-DNA phosphodiesterase 1 (Homo sapiens)", "inactive"),
    ("O=C(COC(=O)c1cccs1)NCc1cccs1", "Tyrosyl-DNA phosphodiesterase 1 (Homo sapiens)", "inactive"),
    ("COc1ccc(-c2nn(-c3ccccc3)cc2/C=C2/SC(=S)N(CCCC(=O)O)C2=O)c(C)c1", "Tyrosyl-DNA phosphodiesterase 1 (Homo sapiens)", "active"),
    ("O=C(CCc1ccccc1)NCCc1cccs1", "Tyrosyl-DNA phosphodiesterase 1 (Homo sapiens)", "inactive"),
    ("COC(=O)c1ccc(NC(=O)CSc2n[nH]c(-c3ccccc3)n2)cc1", "Tyrosyl-DNA phosphodiesterase 1 (Homo sapiens)", "inactive"),
    ("CCCC(=O)N1CCN(c2nc3c(OC)ccc(C)c3s2)CC1", "Tyrosyl-DNA phosphodiesterase 1 (Homo sapiens)", "inactive"),
    ("CCOC(=O)c1ccc(NC(=O)c2c(NCc3cccs3)sc3c2CCCC3)cc1", "Tyrosyl-DNA phosphodiesterase 1 (Homo sapiens)", "inactive"),
    ("O=C(COC(=O)CCC(=O)c1cccs1)NCc1ccco1", "Tyrosyl-DNA phosphodiesterase 1 (Homo sapiens)", "active"),
    ("COC(=O)Cc1ccc(N(Cc2ccccc2F)S(=O)(=O)c2ccc(Br)cc2)cc1", "Tyrosyl-DNA phosphodiesterase 1 (Homo sapiens)", "inactive"),
    ("Cc1csc(NC(=O)CSc2nc(=O)cc(N)n2-c2ccc(F)cc2)n1", "Tyrosyl-DNA phosphodiesterase 1 (Homo sapiens)", "inactive"),
    ("O=S1(=O)N=C(Oc2cccc(Br)c2)c2ccccc21", "Tyrosyl-DNA phosphodiesterase 1 (Homo sapiens)", "inactive"),
    ("O=C1CC(c2ccccc2)CC2=C1C(c1ccco1)n1nc(C(F)(F)F)nc1N2 (stereo not drawn)", "Tyrosyl-DNA phosphodiesterase 1 (Homo sapiens)", "inactive"),
]

All values here come from PubChem BioAssay AID485290.
